B1: USP39 (parent)
chain: TLSEAYIQIWKRRDNDETNQQGA

- Variants of: B1
- ASSAY_DETAILS: protein stability index of a GFP-peptide fusion (GPS, HEK-293T) (PSI 1-6); higher = more stable;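 also: lentivirally expressed fusions sorted by FACS into six bins by GFP to DsRed ratio, PSI derived from sequencing read proportions per bin multiplied by bin number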
- ASSAY_SETUP: c terminus: native
MEASUREMENT_TYPE: protein stability index

Requested read-out: protein stability index. Entry: TLSEAYIQIWKRRDDDETNQQGA [N15D]
3.03

Next up: TESEAYIQIWKRRDNDETNQQGA [L2E]
3.08

Next up: TLSEAYIQIWKRRDNDFTNQQGA [E17F]
1.99

Next up: TLSEAYIQIWKRRDNTETNQQGA [D16T]
1.98

Next up: TLSEAYIEIWKRRDNDETNQQGA [Q8E]
3

Next up: TLSIAYIQIWKRRDNDETNQQGA [E4I]
1.96

Next up: TLSEAYIQIWKRRDQDETNQQGA [N15Q]
2.01

Next up: TLPEAYIQIWKRRDNDETNQQGA [S3P]
3.01

Next up: TLSEACIQIWKRRDNDETNQQGA [Y6C]
2.98

Next up: TLLEAYIQIWKRRDNDETNQQGA [S3L]
3.01

Next up: TLSEAYITIWKRRDNDETNQQGA [Q8T]
1.98

Next up: TLSEAYIAIWKRRDNDETNQQGA [Q8A]
2.92

Next up: TLSEAYIFIWKRRDNDETNQQGA [Q8F]
2

Next up: TLSEAYIQIWKRRDNDETNQSGA [Q21S]
2.96

Next up: TMSEAYIQIWKRRDNDETNQQGA [L2M]
2.98
